system: Rattus norvegicus; test: Effect evaluated in vivo on 5-HTP accumulation in limbic system at a dose 3.1 umol/kg (s.c.); type: functional
observation_type: Control
The reply must contain the numeric value and, after it, the unit.

Field: example entries. Status: answers known.
cpd_smiles	observation_type	observed_measurement
CCN1CCc2cccc(O)c2CC1	Control	89%
COc1cccc2c1CCN(C)CC2	Control	108%
CCCN1CCc2cccc(OC)c2CC1	Control	48%
CCCN1CCc2c(Br)ccc(OC)c2CC1	Control	69%
CN1CCc2cccc(O)c2CC1	Control	106%

Now let's try a different one.
stdin: Quick one: Control of COc1cccc2c1CCN(CC1CC1)CC2 ?
stdout: 67%
